target: recombinant homotrimeric HA, A/South Carolina/1/18 H1N1 (Influenza A virus A/South Carolina/1/18 (H1N1)); assay: trimeric HA microarray, transfection set 5; details: remark: other sources report otherwise
Form field: Trimeric HA Binding RLU (one value per entry).
metric: Trimeric HA Binding RLU (RLU)

1. TCN-558 (5248_H10b) (antibody, V domains shown) VH: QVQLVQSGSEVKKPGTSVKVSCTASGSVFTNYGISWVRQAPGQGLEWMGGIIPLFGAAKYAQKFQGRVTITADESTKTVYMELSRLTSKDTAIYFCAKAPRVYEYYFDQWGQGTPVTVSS VL: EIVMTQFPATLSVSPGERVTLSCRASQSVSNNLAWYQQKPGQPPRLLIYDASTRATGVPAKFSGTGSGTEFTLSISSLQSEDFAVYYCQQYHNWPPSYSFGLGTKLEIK :: 40700
2. TCN-537 (3194_D21) (antibody, V domains shown) VH: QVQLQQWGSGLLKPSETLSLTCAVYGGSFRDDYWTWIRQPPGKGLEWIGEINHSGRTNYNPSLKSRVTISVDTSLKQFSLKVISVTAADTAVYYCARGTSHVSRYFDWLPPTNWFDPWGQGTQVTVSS VL: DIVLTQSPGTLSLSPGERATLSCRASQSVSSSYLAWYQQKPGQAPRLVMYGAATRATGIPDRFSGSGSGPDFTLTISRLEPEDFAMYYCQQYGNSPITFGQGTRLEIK :: 46800
3. TCN-554 (5277_M05) (antibody, V domains shown) VH: QVQLVQSGADLKKPGASVKVSCKASGYTFTDYYIHWVRQAPGQGLEWMGWINPESGDTKYAQKFQGRVTMTRDTSITTAYMELGRLRSDDTAVYYCARDVSTTWSWFAPWGQGTLVTVSS VL: DIVMTQSPDSLAVSLGERATINCRSSQSIFHNSNNENYLAWYQQKPGQPPKLLIYWASTRESGVPDRFSGSGSGTDFTLTISSLQAEDVAVYFCQQYYNAPLTFGGGTKVEIK :: 1260
